# Tested on: MCF-10A
# test_name: MTT cytotoxicity assay
# Format: cell-based, human
# measurement_setup: Homo sapiens; MCF-10A, 24 h, MTT assay, means ± SD of quadruplicate determinations
observed_property: IC50 (µM)
Supply the numeric figure in µM, leaving out any unit text.

Checklist item: IC50 tested on MCF-10A, entry CCOC1c2c(ccc3c2OCO3)-c2ccc3cc4c(cc3c2N1C)OCO4 (stereo not shown) [Eth, Ethoxysanguinarine] , value?
12.3

====

# Tested on: seven BC cell lines
# test_name: MTT assay, summary over BC cell lines
# Assay type: cell-based
# measurement_setup: Homo sapiens, range over BC cell lines
# Procedure: Human BC cell lines MCF-7, MDA-MB-231, DMA-MB-436, SK-BR3, MDA-MB-468, MDA-MB-453, and MDA-MB-435S and non-tumorigenic MCF-10A human mammary epithelial cells were obtained from American Type Culture Collection (ATCC; Manassas, VA, USA). […] Cells were seeded into 96-well plate and pre-cultured for 24 h, then treated with Eth for 24. Cell cytotoxicity was determined by MTT assay. […]
observed_property: IC50

Param item = CCOC1c2c(ccc3c2OCO3)-c2ccc3cc4c(cc3c2N1C)OCO4 (stereo not shown) ; retrieve measured IC50.
2.63 to 9.15 µM
